Where do these numbers come from? They come from patent US10669272B2.

- study_system: human DGKα (Homo sapiens, UniProt P23743)
- Construct: TVMV protease cleavage site (C); Hexa-His (C); made in house; host or cells: Sf9 insect cells (baculovirus, Bac-to-Bac)
- Sequence (P23743 with tags, fused parts or gaps): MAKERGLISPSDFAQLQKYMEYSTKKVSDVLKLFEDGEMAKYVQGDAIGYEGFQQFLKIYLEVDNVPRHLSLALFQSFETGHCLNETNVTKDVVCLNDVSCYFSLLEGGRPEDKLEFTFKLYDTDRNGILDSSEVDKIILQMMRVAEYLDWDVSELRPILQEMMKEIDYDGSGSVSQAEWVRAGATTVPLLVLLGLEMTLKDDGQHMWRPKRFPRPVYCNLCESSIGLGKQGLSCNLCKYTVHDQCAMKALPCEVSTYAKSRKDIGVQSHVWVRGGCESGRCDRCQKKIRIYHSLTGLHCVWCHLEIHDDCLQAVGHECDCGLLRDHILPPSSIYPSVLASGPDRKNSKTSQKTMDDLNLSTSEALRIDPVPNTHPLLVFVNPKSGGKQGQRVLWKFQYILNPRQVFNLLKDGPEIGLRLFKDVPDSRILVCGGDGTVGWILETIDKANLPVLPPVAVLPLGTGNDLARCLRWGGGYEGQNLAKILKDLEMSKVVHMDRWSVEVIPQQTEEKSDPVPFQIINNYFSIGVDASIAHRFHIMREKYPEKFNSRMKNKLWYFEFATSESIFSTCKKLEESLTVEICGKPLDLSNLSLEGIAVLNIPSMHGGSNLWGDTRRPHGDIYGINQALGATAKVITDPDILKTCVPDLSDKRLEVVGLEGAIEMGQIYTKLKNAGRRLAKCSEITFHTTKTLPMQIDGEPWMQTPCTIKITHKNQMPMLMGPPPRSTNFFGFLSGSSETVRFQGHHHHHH
- test_details: DGKα LIPGLO assay (extruded liposome substrate), in vitro DGK inhibition
- Type: biochemical
- measurement_context: DGKα liposome (LIPGLO) assay; read-out: DGKa LIPGLO IC50
pIC50: −log10 of the molar value.

{"compound": "C[C@@H]1CN(c2c(C#N)c(=O)n(C)c3ccc(C#N)nc23)[C@@H](C)CN1C(c1ccccc1)c1ccc(F)cc1 (stereo partly drawn) [Example 807]", "study_system": "human DGKα (Homo sapiens, UniProt P23743)", "pIC50": 5.30}
{"compound": "COC(=O)c1cccc(C(C)N2C[C@H](C)N(c3c(C#N)c(=O)n(C)c4ccc(C#N)nc34)C[C@H]2C)c1 (single isomer, unassigned) [Example 795]", "study_system": "human DGKα (Homo sapiens, UniProt P23743)", "pIC50": 4.89}
{"compound": "CC(c1ccc(C(F)(F)F)cc1)N1C[C@H](C)N(c2c(C#N)c(=O)n(C)c3ccc(C#N)nc23)C[C@H]1C (stereo partly drawn)", "study_system": "human DGKα (Homo sapiens, UniProt P23743)", "pIC50": 5.32}
